target under test: HLA-A*02:03
experiment summary: IEDB peptide-MHC binding, purified MHC/competitive/radioactivity; filed as Kd, often an IC50 or EC50 that approximates it; bounds were set here for any values at or beyond the usual limits of such assays
experimental context: source organism: Dengue virus 4 Dominica/814669/1981
pKd: −log10 of the molar value.

- input sequence: "ALSEGVYRI"
  target under test: "HLA-A*02:03"
  pKd: 7.76

----------
Quick list: Kd per entry.
target under test: HLA-B*07:02
experiment summary: IEDB peptide-MHC binding, purified MHC/direct/fluorescence; filed as Kd, often an IC50 or EC50 that approximates it; bounds were set here for any values at or beyond the usual limits of such assays
experimental context: source organism: Yersinia pestis

- input sequence: "QQSEARRML"
  target under test: "HLA-B*07:02"
  Kd (nM): 397
- input sequence: "RPQLWRYRW"
  target under test: "HLA-B*07:02"
  Kd (nM): 970

----------
target under test: HLA-B*46:01
experiment summary: IEDB peptide-MHC binding, purified MHC/direct/fluorescence; filed as Kd, often an IC50 or EC50 that approximates it; bounds were set here for any values at or beyond the usual limits of such assays
experimental context: source organism: Encephalitozoon cuniculi GB-M1
pKd: −log10 of the molar value.

- input sequence: "RNMSRIFPY"
  target under test: "HLA-B*46:01"
  pKd: "≤ 4.70"

----------
IC50: recorded values
target under test: HLA-A*02:01
experiment summary: IEDB peptide-MHC binding, purified MHC/competitive/fluorescence; bounds were set here for any values at or beyond the usual limits of such assays
experimental context: source organism: Sudan ebolavirus

- input sequence: "IIGTNGNHM"
  rel: "≥"
  IC50 [µM]: 144
- input sequence: "KSSFFVWVI"
  rel: "="
  IC50 [µM]: 0.274
- input sequence: "QHSTTLFKI"
  rel: "≥"
  IC50 [µM]: 80
- input sequence: "LRRWGGTCR"
  rel: "≥"
  IC50 [µM]: 645
- input sequence: "NQNALVCGL"
  rel: "≥"
  IC50 [µM]: 122
- input sequence: "GVSTDIPSA"
  rel: "="
  IC50 [µM]: 2.08
- input sequence: "TAQEQHNAA"
  rel: "="
  IC50 [µM]: 27.5

----------
target under test: HLA-B*08:01
experiment summary: IEDB peptide-MHC binding, purified MHC/direct/fluorescence; filed as Kd, often an IC50 or EC50 that approximates it; bounds were set here for any values at or beyond the usual limits of such assays
experimental context: source organism: Influenza A virus (A/Hong Kong/516/97(H5N1))
experimental readout: Kd

- input sequence: "SYINRTGTF"
  target under test: "HLA-B*08:01"
  observed: "≥ 20 µM"

----------
target under test: HLA-A*02:06
experiment summary: IEDB peptide-MHC binding, purified MHC/competitive/radioactivity; filed as Kd, often an IC50 or EC50 that approximates it; bounds were set here for any values at or beyond the usual limits of such assays
experimental context: source organism: Vaccinia virus WR
So basically: is Kd under 2 µM? Then yes. Not under? Then no.

- input sequence: "AIFNNRNLA"
  category: "yes"
- input sequence: "TVGMLIYSM"
  category: "no"
- input sequence: "NMCNSDVSV"
  category: "yes"
- input sequence: "RLRQDTEDIV"
  category: "no"
- input sequence: "RVLYDEFVT"
  category: "yes"
- input sequence: "PMIIGEPIIV"
  category: "no"
- input sequence: "KQYDSTDFKM"
  category: "yes"
- input sequence: "VLLPFYETL"
  category: "yes"
- input sequence: "DVIKSISSI"
  category: "no"
- input sequence: "RLEVIGLTT"
  category: "no"
- input sequence: "DINVIGLIVI"
  category: "no"
- input sequence: "TTNNLLEQL"
  category: "no"
- input sequence: "NTTTFITVLT"
  category: "yes"
- input sequence: "ETLPELNLSL"
  category: "yes"
- input sequence: "TISWMMKLGI"
  category: "no"

----------
target under test: HLA-A*11:01
experiment summary: IEDB peptide-MHC binding, purified MHC/competitive/radioactivity; filed as Kd, often an IC50 or EC50 that approximates it; bounds were set here for any values at or beyond the usual limits of such assays
experimental context: source organism: Dengue virus 4 Philippines/H241/1956
pKd: −log10 of the molar value.

- input sequence: "RVYADPMALK"
  pKd: 7.04

----------
target under test: HLA-A*24:02
experiment summary: IEDB peptide-MHC binding, purified MHC/competitive/radioactivity; filed as Kd, often an IC50 or EC50 that approximates it; bounds were set here for any values at or beyond the usual limits of such assays
experimental context: source organism: HIV-1 M:B_ARV2/SF2
experimental readout: Kd (nM)

- input sequence: "RYLRDQQLL"
  experimental readout: "Kd"
  observed: 30

----------
target under test: HLA-C*07:02
experiment summary: IEDB peptide-MHC binding, purified MHC/direct/fluorescence; filed as Kd, often an IC50 or EC50 that approximates it; bounds were set here for any values at or beyond the usual limits of such assays
experimental context: source organism: Yellow fever virus
experimental readout: Kd

- input sequence: "RRRLRTLVL"
  target under test: "HLA-C*07:02"
  experimental readout: "Kd"
  observed: "225 nM"

----------
target under test: HLA-A*02:01
experiment summary: IEDB peptide-MHC binding, purified MHC/direct/fluorescence; filed as Kd, often an IC50 or EC50 that approximates it; bounds were set here for any values at or beyond the usual limits of such assays
experimental context: source organism: Cowpox virus

- input sequence: "YHRPLTGYM"
  target under test: "HLA-A*02:01"
  Kd: "≥ 20 µM"
- input sequence: "VYSFDESSF"
  target under test: "HLA-A*02:01"
  Kd: "≥ 20 µM"

----------
target under test: HLA-A*31:01
experiment summary: IEDB peptide-MHC binding, purified MHC/competitive/radioactivity; filed as Kd, often an IC50 or EC50 that approximates it; bounds were set here for any values at or beyond the usual limits of such assays
experimental context: source organism: Vaccinia virus WR
Entries whose Kd is below 1000 nM take YES; entries at or above 1000 nM take NO.

- input sequence: "NVFKAMETFK"
  category: "YES"
- input sequence: "DVDTSASEIK"
  category: "NO"
- input sequence: "ITGNNIILSK"
  category: "NO"
- input sequence: "YLLVKWIRK"
  category: "YES"
- input sequence: "NSSAVVDNK"
  category: "NO"
- input sequence: "SFKLILAEY"
  category: "YES"
- input sequence: "NSKYSYELY"
  category: "NO"
- input sequence: "VIRLLIWAY"
  category: "NO"
- input sequence: "LVKSYSLIR"
  category: "YES"
- input sequence: "YLINPNILY"
  category: "NO"
- input sequence: "PLFDFVNEK"
  category: "NO"
- input sequence: "LFYTFAISY"
  category: "NO"
- input sequence: "PVLKAMHDK"
  category: "NO"
- input sequence: "IFNEDTSYY"
  category: "NO"
- input sequence: "KVFSFWLLCK"
  category: "YES"
- input sequence: "KTLDISSFY"
  category: "YES"
- input sequence: "VIENGILKK"
  category: "NO"
- input sequence: "MLFTSTNDK"
  category: "NO"
- input sequence: "DTEDIVSDSK"
  category: "NO"
- input sequence: "ILKINSVKY"
  category: "NO"
- input sequence: "KSINKVYGR"
  category: "YES"
- input sequence: "LSEYETMVDY"
  category: "NO"
- input sequence: "KLVKSLVDK"
  category: "NO"

----------
target under test: HLA-B*40:01
experiment summary: IEDB peptide-MHC binding, purified MHC/competitive/radioactivity; filed as Kd, often an IC50 or EC50 that approximates it; bounds were set here for any values at or beyond the usual limits of such assays
experimental context: source organism: Mammarenavirus guanaritoense

- input sequence: "ADSEITETY"
  target under test: "HLA-B*40:01"
  rel: "≥"
  Kd [µM]: 37.6
- input sequence: "IDFLIMRNL"
  target under test: "HLA-B*40:01"
  rel: "="
  Kd [µM]: 15.5

----------
target under test: HLA-B*44:02
experiment summary: IEDB peptide-MHC binding, purified MHC/direct/fluorescence; filed as Kd, often an IC50 or EC50 that approximates it; bounds were set here for any values at or beyond the usual limits of such assays
experimental context: source organism: Salmonella enterica subsp. enterica serovar Typhi

- input sequence: "REILFHNTM"
  Kd: "≥ 20 µM"

----------
target under test: HLA-B*27:05
experiment summary: IEDB peptide-MHC binding, purified MHC/direct/fluorescence; filed as Kd, often an IC50 or EC50 that approximates it; bounds were set here for any values at or beyond the usual limits of such assays
experimental context: source organism: Escherichia coli
pKd: −log10 of the molar value.
experimental readout: pKd

- input sequence: "SSMNSDAAY"
  target under test: "HLA-B*27:05"
  experimental readout: "pKd"
  observed: "≤ 4.70"
